Overview of reported Plasma Stability (% remaining, 6 h/24 h) Human across a group of compounds:
assay-method-text: Plasma stability assay, human plasma
Type: in vitro ADME
applied-conditions: 37° C., 24 h
State the answer as a number, implicitly in %.

Recorded Plasma Stability (% remaining, 6 h/24 h) Human, per entry:
compound | test-value
CNC(=O)c1cccc(Cn2nc(C)c(NC(=O)c3ccc(COc4ccc(C(F)(F)F)cc4)cc3)c2C)c1 [Compound D9c] | 100
CC(=O)Nc1cccc(Cn2nc(C)c(NC(=O)c3ccc(COc4ccc(C(F)(F)F)cc4C)cc3)c2C)c1 [Compound D12] | 95

So what does the record say about Plasma Stability (% remaining, 6 h/24 h) Human for CC(=O)Nc1cccc(Cn2nc(C)c(NC(=O)c3ccc(COc4ccc(C(F)(F)F)cc4)cc3)c2C)c1 [Compound D11] ?
94
